Assayed system: Pro-neuregulin-1, membrane-bound isoform (Homo sapiens) (UniProt Q02297)
Sequence (Q02297 whole entry, looked up, canonical isoform): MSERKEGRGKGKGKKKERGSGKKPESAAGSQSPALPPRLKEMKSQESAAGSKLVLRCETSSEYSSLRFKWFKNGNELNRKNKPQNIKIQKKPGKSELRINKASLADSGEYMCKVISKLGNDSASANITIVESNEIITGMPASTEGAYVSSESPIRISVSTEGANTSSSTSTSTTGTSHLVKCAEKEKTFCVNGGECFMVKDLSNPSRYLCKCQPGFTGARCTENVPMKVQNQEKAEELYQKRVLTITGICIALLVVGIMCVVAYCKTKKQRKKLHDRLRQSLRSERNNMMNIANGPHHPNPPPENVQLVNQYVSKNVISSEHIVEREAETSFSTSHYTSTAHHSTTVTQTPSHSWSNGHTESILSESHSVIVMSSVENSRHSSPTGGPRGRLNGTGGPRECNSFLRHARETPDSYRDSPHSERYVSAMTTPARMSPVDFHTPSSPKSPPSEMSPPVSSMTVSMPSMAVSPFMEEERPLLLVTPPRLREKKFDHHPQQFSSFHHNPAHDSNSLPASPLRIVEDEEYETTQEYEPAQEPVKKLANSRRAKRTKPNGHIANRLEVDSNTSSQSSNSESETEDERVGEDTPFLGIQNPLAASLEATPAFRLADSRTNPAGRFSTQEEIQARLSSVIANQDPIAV
Measurement protocol: NRG1 binders on small-molecule microarrays, primary screen, psychiatric disease protein project, biochemical, small-molecule microarray, fluorescence 635/667 (AID 1075);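 also: score combines 667 nm spot fluorescence with signal to noise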
Condition info: NRG1 binding, 635 nm fluorescence, higher = more signal
Entry flag: criterion met if composite z-score reaches 0.6; criterion not met if it does not.

Some entries whose results are on file:
NC(=O)NCC#Cc1ccc2c(c1)[C@]1(C(=O)N2)[C@H](c2ccccc2OCCO)N2[C@H](c3ccccc3)[C@H](c3ccccc3)OC(=O)[C@H]2[C@@H]1C(=O)N1CCN(c2ncccn2)CC1: criterion met
O=C1NC(=O)C2C1C=CC(C(O)C=Cc1ccc([N+](=O)[O-])cc1)N2Nc1ccccn1 (stereo not given): criterion not met
CO[C@@H]1COC(=O)[C@H](C)NC(=O)CC=C[C@@H](C)[C@H](NS(=O)(=O)c2ccc(C)cc2)COC(=O)CC=C[C@@H]1C: criterion not met
Cc1ccc(S(=O)(=O)N2[C@@H](c3ccccc3)C(C(=O)O)=CC[C@H]2c2ccccc2)cc1: criterion met
CCCC=C(CCC)[C@@H](NC(=O)c1ccc(C(F)(F)F)cc1)c1ccccc1: criterion not met
Cc1ccc(S(=O)(=O)N[C@H]2COC(=O)CC=C[C@H](C)COC(=O)N[C@@H](C)C(=O)CC=C[C@@H]2C)cc1: criterion not met
C=CCC1=C[C@H]2[C@H]([C@@H]3C=C[C@]2(CC=C)C(=O)[C@]32CO2)[C@@]2(CO2)C1=O: criterion not met
O=C1OCCC/C=C\[C@H]2OC34C=CCN(CCN5CCOCC5)C(=O)[C@H]3N(CCCCCO)C(=O)[C@@H]4C12 (stereo not given in full): criterion not met
C=CCC(OC(C)=O)[C@@H]1[C@@H](N(Cc2ccc(-c3ccccc3)cc2)C(=O)c2ccc(C)cc2)c2cc(OCCCO)ccc2N1C(=O)c1ccc(-c2ccccc2)cc1 (stereo not given in full): criterion not met
COCCCNC(=O)[C@@H]1c2ccccc2C(=O)N(CC23CC4CC(CC(C4)C2)C3)[C@H]1c1ccc(CO)cc1: criterion not met

Check the entry `C[C@@H]1CC[C@H]2C(=O)N3[C@@H](CC[C@@H](C)[C@@H]3c3cccc(N4CCOCC4)c3)C(=O)N2[C@H]1c1cccc(N2CCOCC2)c1` : does composite z-score equal or exceed 0.6?
criterion not met

# bool: composite z-score of `O=C1c2ccccc2[C@](Cc2ccccc2I)(C(=O)NCC(F)(F)F)[C@H](c2ccc(CO)cc2)N1Cc1ccccc1C(F)(F)F` >= 0.6
criterion met

Could you please find out whether `CO[C@H]1COC(=O)CC=C[C@H](C)[C@@H](OC)COC(=O)[C@H](Cc2ccccc2)NC(=O)CC=C[C@@H]1C` has composite z-score that meets 0.6 or exceeds it?
criterion not met

Item `C=CC[C@@]1(C(=O)N2CCOCC2)N=C(c2ccc(OCCCO)cc2)O[C@@H]1c1ccccc1` with composite z-score of 0.6 or above?
criterion met

Can `CC(C)=C1C(=O)C(c2ccccc2)=C2CN3C(=O)N(CCc4ccccc4)C(=O)[C@]3(Cc3ccccc3)[C@H]21` be said to have composite z-score at or above 0.6?
criterion not met
